# Test system: RXF 393
# test name: NCI tumour cell line growth inhibition, 48 h
The source made the active and inactive calls. Cut-off read from the data, not from the text of the source: active = GI50 up to about 1.1 µM and inactive = higher.
assay readout: GI50

Answered cases to consult:
c1ccc(SC(Sc2ccccc2)=C2CCC2)cc1    > 100 µM (inactive)
C[C@H]1[C@H]2[C@H](C[C@@]3(C)C4=CC[C@H]5C(C)(C)[C@@H](OC6OCC(O)C(O)C6O)CC[C@@]56C[C@@]46CC[C@]23C)O[C@@]2(O)[C@@H]1OC(C)(C)[C@H]2O (some centres undefined)    1.2 µM (inactive)
O=C(O)C(CCc1ccccc1)N1C(=O)c2ccccc2C1=O (centres undefined)    > 100 µM (inactive)

Could you now look at the following compound, please?
Look up GI50: CC(=O)O[C@@H]1C2C(=O)OC(=O)C2C2CCC[C@]23O[C@H]13 (some centres undefined) > 100 µM (inactive)

---

# System: HT-29
# test name: NCI tumour cell line growth inhibition, 48 h
Active and inactive are the calls of the source. No stated cut-off is given here; in the data, active = GI50 up to about 1.1 µM and inactive = higher.
Your answer must be one of the following: class 1 for active, class 0 for inactive

CCn1c2ccc(C(=O)CCCN3CCCCC3)cc2c2cc(C(=O)CCCN3CCCCC3)ccc21    class 0
O=C(NNc1ccnc2cc(Cl)ccc12)/C(=C\c1ccccc1Cl)NC(=O)c1ccccc1    class 0
CC1(C)CC(=O)c2c(nc3c4c([nH]c(-c5ccc(Br)cc5)c24)CC(C)(C)C3)C1    class 0
O=[N+]([O-])c1ccc(OP(=O)(O)OCC2OC(CP(=O)(O)O)C(O)C2O)cc1 (configuration not stated)    class 0
Cc1cc(=O)oc2c(CNC(C(=O)O)C(C)O)c(O)ccc12 (configuration not stated)    class 0
Clc1cc(Cl)c2ns[s+]c2c1Cl    class 0
CCOC(=O)c1cc2c(=Cc3ccc(N(C)C)cc3)c3ccccc3n2[n+]1C    class 1
CSc1c(C#N)c(O)n(-c2ccc(Cl)cc2)c(=O)c1C#N    class 0
C/C(CN1C(=O)c2ccccc2C1=O)=N\NS(=O)(=O)c1cccc(C(=O)O)c1    class 0
Cc1ccc(Cl)c2[nH]c(-c3ccccc3)cc(=O)c12    class 0

Lab log entry: `COc1ccc(NC(=O)CC/C(CC(=O)c2ccccc2Cl)=N\Nc2nnc(C)n2N)cc1` — outcome as called in the assay? class 0

Try this molecule next: `Cc1c2ncccc2c(C)c2c1[nH]c1ccc(O)cc12` class 0

Try this molecule next: C[C@H]1[C@H]2[C@H](C[C@@]3(C)C4=CC[C@H]5C(C)(C)[C@@H](OC6OCC(O)C(O)C6O)CC[C@@]56C[C@@]46CC[C@]23C)O[C@@]2(O)[C@@H]1OC(C)(C)[C@H]2O (some centres not stated) class 0

Try this molecule next: `CCCCOC(=O)NC(Nc1ccc(S(=O)(=O)Nc2ncccn2)cc1)(C(F)(F)F)C(F)(F)F` class 0

---

# Tested on: K562
# test name: NCI tumour cell line growth inhibition, 48 h
The source made the active and inactive calls. Cut-off read from the data, not from the text of the source: active = GI50 up to about 1.1 µM and inactive = higher.
Your answer must be one of the following: true (1) (active), false (0) (inactive)

Oc1c(OCc2nnc(CCCCCCCCc3nnc(COc4ccc5ccccc5c4O)n3Nc3ccccc3)n2Nc2ccccc2)ccc2ccccc12    true (1)
CC(=O)NC1C(OCc2ccccc2)OC(CO)C(O)C1OC(C)C(=O)NC(C(=O)NC(CCC(=O)NCCCC(=O)Nc1ccc2c(c1)CN1C(=O)c3ccccc3C1=N2)C(N)=O)C(C)C (configuration not stated)    false (0)
C=C1CC(COc2ccc3c(C)cc(=O)oc3c2)(c2ccccc2)OC1=O (configuration not stated)    true (1)

Lab log entry: `COP(=O)(OC)[C@@](O)(c1ccccc1)[C@@H](O)[C@H](O)c1ccccc1` — outcome as called in the assay? false (0)

Try this molecule next: `C/C(CN1C(=O)c2ccccc2C1=O)=N\NS(=O)(=O)c1cccc(C(=O)O)c1` false (0)

Try this molecule next: `Cc1nn(-c2ccccc2)c2nc(N3CCOCC3)nnc12` false (0)

Try this molecule next: `Cn1c2ccccc2n2c3ncccc3/c(=N/CCCC(=O)O)c(C#N)c12` false (0)

Try this molecule next: `C=CCc1cc(-c2cc(CC=C)c(O)c(CN(CCCl)CCCl)c2)cc(CN(CCCl)CCCl)c1O` false (0)

Try this molecule next: COC(=O)C1CC(=O)CCC1c1ccccc1 (configuration not stated) false (0)

Try this molecule next: O=C1CC2CCN(C(=O)c3ccccc3)CC2CCN1.O=C1CCC2CC(C(=O)c3ccccc3)CCC2CN1 (configuration not stated) false (0)

Try this molecule next: `O=C1CCCc2c1c1c(n2Cc2ccccc2)-c2ccccc2C1=O` false (0)

Try this molecule next: CCCNCC(O)CNc1ccc(NCC(O)CNCCC)c2c1C(=O)c1ccccc1C2=O (configuration not stated) false (0)

---

GI50 values by entry
# Test system: OVCAR-5
# test name: NCI tumour cell line growth inhibition, 48 h
Active and inactive are the calls of the source. Cut-off read from the data, not from the text of the source: active = GI50 up to about 1.1 µM and inactive = higher.

Look up GI50: `CCCCC1=C(C(=O)N2CCOCC2)C2(OCCO2)C1=O` 16.9 µM (inactive)

Try this compound next: `CCOC(=O)COc1cccc2occc(=O)c12` > 100 µM (inactive)

Try this compound next: `CN(C)c1n/c(=N/c2ccc(/N=c3\nc(N(C)C)ss3)cc2)ss1` > 100 µM (inactive)

---

# Test system: A549
# test name: NCI tumour cell line growth inhibition, 48 h
Active and inactive are the calls of the source. Cut-off read from the data, not from the text of the source: active = GI50 up to about 1.1 µM and inactive = higher.
assay readout: GI50

Cc1c2c(c(C)c3c[n+](C)ccc13)Oc1ccccc1O2    1.84 µM (inactive)
Cc1nnc2sc(-c3ccc([N+](=O)[O-])o3)nn12    37.8 µM (inactive)
Cc1cc(C)nc(NS(=O)(=O)c2ccc(NC(=O)c3ccc4nc5ccccc5c(Nc5ccc(S(N)(=O)=O)cc5)c4c3)cc2)n1    > 100 µM (inactive)
O=C1CC2CCN(C(=O)c3ccccc3)CC2CCN1.O=C1CCC2CC(C(=O)c3ccccc3)CCC2CN1 (stereo unspecified)    > 100 µM (inactive)
Cn1c(=O)c2c(nc(N3CCOCC3)n2CCCNCC(O)c2ccc(O)c(O)c2)n(C)c1=O (stereo unspecified)    > 100 µM (inactive)

Please provide the recorded GI50 for `O[C@H]1[C@H](O)[C@@H](O)[C@@]2(O)CC[C@@H]1N2` , tested on A549. > 100 µM (inactive)

---

# Test system: NCI/ADR-RES
# test name: NCI tumour cell line growth inhibition, 48 h
Activity calls are given as the source filed them. Cut-off read from the data, not from the text of the source: active = GI50 up to about 1.1 µM and inactive = higher.
assay readout: GI50

CC(OP(=O)(O)O)C(N)C(=O)O (stereo not drawn)    > 100 µM (inactive)
C[C@]1(O)O[C@@H]2OCC[C@@H]2C2=C1C(=O)c1ccccc1C2=O    19.7 µM (inactive)
O=C1/C(=N/O)Cc2c(Br)ccc(Br)c21    35.7 µM (inactive)
CC1CCC/C1=C(/I)C(=O)c1ccccc1 (stereo not drawn)    76.7 µM (inactive)
COC(=O)Cn1cnc2c(Cl)nc(Nc3ccccc3)nc21    73.3 µM (inactive)
Cc1ccc(S(=O)(=O)N2CCN(S(=O)(=O)c3ccc(C)cc3)Cc3ccccc3C2)cc1    > 100 µM (inactive)
C=CCN1C(=O)/C(=C/c2cccs2)N=C1SC/C=C/C    39.1 µM (inactive)
CCn1c2ccc(C(=O)CCCN3CCCCC3)cc2c2cc(C(=O)CCCN3CCCCC3)ccc21    3.78 µM (inactive)
CC1=NN(c2nc(N)nc(/C(C#N)=C/c3ccc([N+](=O)[O-])o3)n2)C(C)(C)C1    10.8 µM (inactive)
COC1(c2ccccc2)N=C(S)NN=C1c1ccccc1 (stereo not drawn)    19.1 µM (inactive)

Look up GI50: `Cc1cc(N(CCCCl)CCCCl)ccc1/C=N/c1cccc(Cl)c1` 14.2 µM (inactive)

Try this compound next: `Cc1ccc(C(=O)OC[C@H]2CC[C@@H](n3cc(N(C)C4CCCCC4)c(=O)[nH]c3=O)O2)cc1` 20 µM (inactive)

Try this compound next: CCN1C(=O)c2ccccc2C1(O)c1ccc(Cl)cc1 (stereo not drawn) 16.5 µM (inactive)

---

# System: DMS-273
# test name: NCI tumour cell line growth inhibition, 48 h
Calls of active or inactive are those of the source. No stated cut-off is given here; in the data, active = GI50 up to about 1.1 µM and inactive = higher.
assay readout: GI50

Answered cases to consult:
COc1ccc(NC(=O)CC(=O)N/N=C(\C)c2cc3ccccc3oc2=O)cc1    > 100 µM (inactive)
C=CCc1ccc(O)c(-c2cc(C3Oc4c(-c5cc(CC=C)ccc5O)cc(O)cc4[C@@H]3CO)ccc2O)c1 (some centres undefined)    20.4 µM (inactive)
CCCCCCCCCCCCCC(=O)CBr    > 10 µM (inactive)

Could you now look at the following molecule, please?
Look up GI50: COc1ccc(C(=O)C(CC2C(=O)NC(=O)NC2=O)c2ccc(OC)cc2)cc1 (centres undefined) > 100 µM (inactive)
